# SUBJECT OF TEST: Flpin-293-PDE4B2 cells (Homo sapiens)
# Sequence (Q07343 1-564 isoform Q07343-2): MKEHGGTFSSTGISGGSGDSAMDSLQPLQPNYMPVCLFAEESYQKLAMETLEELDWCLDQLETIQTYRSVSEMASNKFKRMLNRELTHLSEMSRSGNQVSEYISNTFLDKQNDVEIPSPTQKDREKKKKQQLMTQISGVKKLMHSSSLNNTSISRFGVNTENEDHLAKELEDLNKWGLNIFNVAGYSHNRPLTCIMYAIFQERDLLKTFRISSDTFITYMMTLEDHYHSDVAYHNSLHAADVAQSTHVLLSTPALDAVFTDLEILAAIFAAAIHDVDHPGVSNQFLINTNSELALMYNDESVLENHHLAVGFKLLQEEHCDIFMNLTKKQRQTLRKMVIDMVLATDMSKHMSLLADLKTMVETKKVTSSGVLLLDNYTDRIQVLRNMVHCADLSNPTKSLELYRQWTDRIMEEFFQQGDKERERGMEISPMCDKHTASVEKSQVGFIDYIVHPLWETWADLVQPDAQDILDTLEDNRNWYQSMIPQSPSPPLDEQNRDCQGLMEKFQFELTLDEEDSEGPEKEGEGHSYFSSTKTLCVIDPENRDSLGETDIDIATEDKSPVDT
# ASSAY PROCEDURE: cell-based
# APPLIED CONDITIONS: read-out: Cell Inhibition % @100 nM, 100 nM, Flpin-293-PDE4B2 cells
Recorded inhibition at 0.1 µM for the following compounds
Kindly provide the numeric value in % only, without the unit symbol.

Examples with answers:
[O-][S+]1CCc2nc(N3CCc4cc(N5CCCC5)ncc4C3)nc(NC3(CO)CCC3)c21 (stereo not drawn) [Compound 183]: 99.9
Cn1cc(CNc2nc(N3CCc4cc(N5CCCC5)ccc4C3)nc3c2[S+]([O-])CC3)cn1 (stereo not drawn) [Compound 190]: 96.7
[O-][S+]1CCc2nc(N3CCc4cc(-n5ccnc5)ccc4C3)nc(NC3(CO)CCC3)c21 (stereo not drawn) [Compound 90]: 97.2
C[C@H]1c2ccc(N3CCCC3)cc2CCN1c1nc2c(c(NC3(CO)CC3)n1)[S+]([O-])CC2 (stereo partly drawn) [Compound 203]: 99.9
[O-][S+]1CCc2nc(N3CCc4cc(N5CC6(COC6)C5)ccc4C3)nc(NC3(CO)CCC3)c21 (stereo not drawn) [Compound 164]: 61.1

Please find the next compound below.
Entry under review: C[C@H]1c2ccc(N3CCCC3)cc2CCN1c1nc2c(c(Nc3ncnn3C)n1)[S+]([O-])CC2 (stereo partly drawn) [Compound 217] . Reported inhibition at 0.1 µM?
84.5

----------
Recorded inhibition at 0.001 µM for the following molecules
# SUBJECT OF TEST: Flpin-293-PDE4B2 cells (Homo sapiens)
# ASSAY PROCEDURE: cell-based
# APPLIED CONDITIONS: read-out: Cell Inhibition % @1 nM, 1 nM, Flpin-293-PDE4B2 cells
State the result as a value with its unit after it.

Examples with answers:
[O-][S+]1CCc2nc(N3CCc4cc(N5CC6(COC6)C5)ccc4C3)nc(NC3(CO)CCC3)c21 (stereo not drawn): 6.23%
C[C@H]1c2ccc(N3CCCC3)cc2CCN1c1nc2c(c(NC3(CO)CCOCC3)n1)[S+]([O-])CC2 (stereo partly drawn): 3.24%

Please find the next molecule below.
Entry under review: NC(=O)Cc1ccc(Nc2nc(N3CCc4cc(Cl)ccc4C3)nc3c2[S+]([O-])CC3)cc1 (stereo not drawn) . Reported inhibition at 0.001 µM?
9.78%

----------
# SUBJECT OF TEST: PDE4D2 (Homo sapiens, UniProt Q08499)
# Sequence (Q08499 303-809 limits assumed): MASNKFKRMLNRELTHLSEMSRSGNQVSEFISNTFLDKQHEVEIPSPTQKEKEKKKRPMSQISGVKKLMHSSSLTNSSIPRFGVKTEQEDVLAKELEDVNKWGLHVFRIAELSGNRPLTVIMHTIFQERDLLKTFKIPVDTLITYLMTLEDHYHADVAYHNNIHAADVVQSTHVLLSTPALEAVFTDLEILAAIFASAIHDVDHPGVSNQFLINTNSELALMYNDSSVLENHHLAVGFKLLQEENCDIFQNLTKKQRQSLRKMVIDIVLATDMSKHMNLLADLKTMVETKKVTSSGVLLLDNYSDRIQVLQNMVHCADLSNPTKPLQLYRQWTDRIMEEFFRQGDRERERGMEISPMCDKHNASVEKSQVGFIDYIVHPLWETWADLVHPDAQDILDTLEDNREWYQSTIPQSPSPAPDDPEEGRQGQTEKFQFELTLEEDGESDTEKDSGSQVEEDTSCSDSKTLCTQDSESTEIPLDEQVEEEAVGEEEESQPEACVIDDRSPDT
# ASSAY PROCEDURE: PDE4D2 enzyme experiment (AMP-Glo)
# APPLIED CONDITIONS: read-out: PDE4D2 IC50 Binding; enzyme assay
Recorded IC50 for the following compounds
Kindly provide the numeric value in nM only, without the unit symbol.

Examples with answers:
C[C@H]1c2ccc(N3CCCC3)cc2CCN1c1nc2c(c(NC3(CO)CCOCC3)n1)[S+]([O-])CC2 (stereo partly shown): 1.25
O=S1(=O)CCC(Nc2nc(N3CCc4cc(N5CCCC5)ccc4C3)nc3c2[S+]([O-])CC3)CC1 (stereo not shown): 0.116
[O-][S+]1CCc2nc(N3CCc4cc(N5CCCC5)ccc4C3)nc(NCCO)c21 (stereo not shown): 1.79
COc1nn(C)cc1Nc1nc(N2CCc3cc(N4CCCC4)ccc3[C@@H]2C)nc2c1[S+]([O-])CC2 (stereo partly shown): 0.75
Cn1cc(Nc2nc(N3CCc4cc(N5CCCC5)ccc4C3)nc3c2[S+]([O-])CC3)cn1 (stereo not shown): 0.561

Any idea what IC50 came out for Cn1cnc(Nc2nc(N3CCc4cc(N5CCCC5)ccc4C3)nc3c2[S+]([O-])CC3)c1 (stereo not shown) on PDE4D2 (Homo sapiens, UniProt Q08499)?
23.8

Any idea what IC50 came out for [O-][S+]1CCc2nc(N3CCc4cc(N5CCCC5)ccc4C3)nc(N3CCC[C@H]3CO)c21 (stereo partly shown) on PDE4D2 (Homo sapiens, UniProt Q08499)?
0.73
